Molecular target: T1, SXL RRM12 (UniProt P19339 122-294)
T1 sequence: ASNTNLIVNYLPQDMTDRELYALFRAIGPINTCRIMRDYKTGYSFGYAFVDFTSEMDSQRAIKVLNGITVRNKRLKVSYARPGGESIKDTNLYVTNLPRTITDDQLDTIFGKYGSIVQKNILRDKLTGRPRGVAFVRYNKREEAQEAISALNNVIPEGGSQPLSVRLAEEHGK
Test: fluorescence anisotropy
measured_parameter: pKd
One number for each entry, as −log10 of the molar value.

Requested field: pKd. Item: UUUUUUUUUUUUUUUUUUUU (ssRNA) [U20]
8.15
